Parameter IC50: see the listing below.
target: Integrin alpha-4/beta-7 (Homo sapiens, UniProt P13612+P26010); experiment: Inhibition of human MAdCAM1 binding to integrin alpha4beta7 receptor in human RPMI 8866 cells labeled with Calcein AM
Sequence (P13612 whole entry): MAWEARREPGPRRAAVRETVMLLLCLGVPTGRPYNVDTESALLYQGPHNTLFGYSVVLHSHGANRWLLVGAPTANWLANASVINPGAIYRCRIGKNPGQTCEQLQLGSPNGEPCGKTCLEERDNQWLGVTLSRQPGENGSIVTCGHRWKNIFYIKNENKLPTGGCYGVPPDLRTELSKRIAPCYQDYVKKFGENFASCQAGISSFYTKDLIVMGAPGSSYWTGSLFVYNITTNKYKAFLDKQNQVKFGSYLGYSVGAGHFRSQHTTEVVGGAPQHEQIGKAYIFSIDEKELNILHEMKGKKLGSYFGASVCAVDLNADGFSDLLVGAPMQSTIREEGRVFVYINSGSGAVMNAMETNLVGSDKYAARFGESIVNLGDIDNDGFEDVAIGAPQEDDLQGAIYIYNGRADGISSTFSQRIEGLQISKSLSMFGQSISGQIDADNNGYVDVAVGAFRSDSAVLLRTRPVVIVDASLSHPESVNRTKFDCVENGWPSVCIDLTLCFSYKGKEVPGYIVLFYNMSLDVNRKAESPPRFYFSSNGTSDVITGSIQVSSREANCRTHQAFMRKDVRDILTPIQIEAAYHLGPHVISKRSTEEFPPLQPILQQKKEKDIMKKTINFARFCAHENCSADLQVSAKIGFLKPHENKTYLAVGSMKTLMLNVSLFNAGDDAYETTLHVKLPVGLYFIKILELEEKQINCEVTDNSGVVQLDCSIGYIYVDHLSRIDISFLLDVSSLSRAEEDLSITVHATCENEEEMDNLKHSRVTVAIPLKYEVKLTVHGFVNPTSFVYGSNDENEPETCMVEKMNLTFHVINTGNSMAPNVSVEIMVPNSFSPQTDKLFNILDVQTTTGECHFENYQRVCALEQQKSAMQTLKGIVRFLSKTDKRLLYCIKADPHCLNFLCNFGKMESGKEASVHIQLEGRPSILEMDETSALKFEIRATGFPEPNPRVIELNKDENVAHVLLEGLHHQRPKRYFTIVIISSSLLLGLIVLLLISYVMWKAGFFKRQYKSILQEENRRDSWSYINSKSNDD
Sequence (P26010 whole entry): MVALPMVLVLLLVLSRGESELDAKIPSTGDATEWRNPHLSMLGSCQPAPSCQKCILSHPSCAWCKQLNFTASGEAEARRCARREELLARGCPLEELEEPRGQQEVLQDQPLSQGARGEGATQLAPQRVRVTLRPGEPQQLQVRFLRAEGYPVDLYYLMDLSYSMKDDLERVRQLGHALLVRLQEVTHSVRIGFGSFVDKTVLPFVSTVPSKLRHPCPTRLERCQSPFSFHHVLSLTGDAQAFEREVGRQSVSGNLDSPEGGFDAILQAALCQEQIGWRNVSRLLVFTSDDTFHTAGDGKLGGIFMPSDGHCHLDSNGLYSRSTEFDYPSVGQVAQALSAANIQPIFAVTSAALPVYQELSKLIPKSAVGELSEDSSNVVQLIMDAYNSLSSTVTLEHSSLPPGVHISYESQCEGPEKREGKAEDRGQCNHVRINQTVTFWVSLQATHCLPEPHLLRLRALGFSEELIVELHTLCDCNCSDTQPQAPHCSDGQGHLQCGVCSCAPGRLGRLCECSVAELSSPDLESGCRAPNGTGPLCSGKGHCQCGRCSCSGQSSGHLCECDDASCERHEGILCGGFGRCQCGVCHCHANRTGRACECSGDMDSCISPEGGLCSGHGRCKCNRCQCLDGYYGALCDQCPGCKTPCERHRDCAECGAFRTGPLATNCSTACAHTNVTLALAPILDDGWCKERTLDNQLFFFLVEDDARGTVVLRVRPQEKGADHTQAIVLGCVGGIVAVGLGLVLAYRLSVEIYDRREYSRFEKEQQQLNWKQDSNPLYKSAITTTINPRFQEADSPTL

- STRUCTURE: "CCn1c(C)cc(C(F)(F)F)c(-c2ccc(C[C@H](NC(=O)c3c(Cl)cccc3Cl)C(=O)O)cc2)c1=O"
  IC50: "61 nM"
- STRUCTURE: "Cc1cccc(Cl)c1C(=O)N[C@@H](Cc1ccc(-c2c(C(F)(F)F)cc(C)n(C)c2=O)cc1)C(=O)O"
  IC50: "154 nM"
- STRUCTURE: "Cc1cccc(Cl)c1C(=O)N[C@@H](Cc1ccc(-c2cccn(C)c2=O)cc1)C(=O)O"
  IC50: "687 nM"
- STRUCTURE: "Cc1cccc(Cl)c1C(=O)N[C@@H](Cc1ccc(-c2c(C)cc(C(F)(F)F)n(C)c2=O)cc1)C(=O)O"
  IC50: "160 nM"
- STRUCTURE: "Cc1cc(C(F)(F)F)c(-c2ccc(C[C@H](NC(=O)c3c(Cl)cccc3Cl)C(=O)O)cc2)c(=O)n1Cc1ccccc1"
  IC50: "600 nM"
- STRUCTURE: "Cc1cccc(Cl)c1C(=O)N[C@@H](Cc1ccc(NC(=O)c2c(Cl)cccc2Cl)cc1)C(=O)O"
  IC50: "43 nM"
- STRUCTURE: "Cc1ccn(C)c(=O)c1-c1ccc(C[C@H](NC(=O)c2c(Cl)cccc2Cl)C(=O)O)cc1"
  IC50: "179 nM"
- STRUCTURE: "COCCC1(C(=O)N[C@@H](Cc2ccc(-c3c(C(F)(F)F)cc(C)n(C)c3=O)cc2)C(=O)O)CCCC1"
  IC50: "671 nM"
- STRUCTURE: "Cc1cccc(C(C)C)c1C(=O)N[C@@H](Cc1ccc(-c2c(C(F)(F)F)cc(C)n(C)c2=O)cc1)C(=O)O"
  IC50: "1290 nM"
- STRUCTURE: "Cc1cccc(Cl)c1C(=O)N[C@@H](Cc1ccc(-c2c(C)ccn(C)c2=O)cc1)C(=O)O"
  IC50: "363 nM"
- STRUCTURE: "Cc1cc(C(F)(F)F)c(-c2ccc(C[C@H](NC(=O)c3c(Cl)cccc3Cl)C(=O)O)cc2)c(=O)[nH]1"
  IC50: "810 nM"
- STRUCTURE: "Cc1cc(C(F)(F)F)c(-c2ccc(C[C@H](NC(=O)c3c(Cl)cccc3Cl)C(=O)O)cc2)c(=O)n1CC1CC1"
  IC50: "1230 nM"
- STRUCTURE: "CCc1cccc(C)c1C(=O)N[C@@H](Cc1ccc(-c2c(C(F)(F)F)cc(C)n(C)c2=O)cc1)C(=O)O"
  IC50: "767 nM"
- STRUCTURE: "Cc1cc(C(F)(F)F)c(-c2ccc(C[C@H](NC(=O)c3c(Cl)cccc3Cl)C(=O)O)cc2)c(=O)n1C"
  IC50: "42 nM"
- STRUCTURE: "Cc1cc(C(F)(F)F)n(C)c(=O)c1-c1ccc(C[C@H](NC(=O)c2c(Cl)cccc2Cl)C(=O)O)cc1"
  IC50: "126 nM"

---

molecular target: Integrin alpha-4/beta-1 (Homo sapiens, UniProt P05556+P13612); experiment: Inhibition of human VCAM1 binding to integrin alpha4beta1 receptor in human Ramos cells labeled with Calcein AM
Sequence (P05556 whole entry): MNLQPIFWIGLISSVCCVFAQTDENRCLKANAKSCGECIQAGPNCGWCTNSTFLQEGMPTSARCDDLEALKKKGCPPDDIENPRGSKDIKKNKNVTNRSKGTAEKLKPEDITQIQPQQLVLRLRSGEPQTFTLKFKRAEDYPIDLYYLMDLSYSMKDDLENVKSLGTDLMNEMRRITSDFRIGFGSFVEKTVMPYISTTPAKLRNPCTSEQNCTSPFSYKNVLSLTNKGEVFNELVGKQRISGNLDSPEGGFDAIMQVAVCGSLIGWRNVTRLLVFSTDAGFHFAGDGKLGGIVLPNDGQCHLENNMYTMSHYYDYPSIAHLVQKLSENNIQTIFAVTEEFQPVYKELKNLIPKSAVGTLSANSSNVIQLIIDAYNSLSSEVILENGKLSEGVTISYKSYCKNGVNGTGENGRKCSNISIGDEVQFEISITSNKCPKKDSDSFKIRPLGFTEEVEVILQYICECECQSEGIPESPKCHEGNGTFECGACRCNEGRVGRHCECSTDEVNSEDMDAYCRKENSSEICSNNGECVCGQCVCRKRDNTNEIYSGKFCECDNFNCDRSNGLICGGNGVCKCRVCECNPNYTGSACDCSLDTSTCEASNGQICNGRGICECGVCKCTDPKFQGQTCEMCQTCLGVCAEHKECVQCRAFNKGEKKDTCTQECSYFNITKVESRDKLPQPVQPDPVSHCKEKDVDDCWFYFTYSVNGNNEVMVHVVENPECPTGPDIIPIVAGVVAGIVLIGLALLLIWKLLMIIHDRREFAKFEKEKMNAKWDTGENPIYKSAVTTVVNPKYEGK
Sequence (P13612 whole entry): as the sequence (P13612 whole entry) above
pIC50: −log10 of the molar value.

- STRUCTURE: "Cc1cccc(Cl)c1C(=O)N[C@@H](Cc1ccc(-c2cccn(C)c2=O)cc1)C(=O)O"
  pIC50: 6.24
- STRUCTURE: "COCCC1(C(=O)N[C@@H](Cc2ccc(-c3c(C(F)(F)F)cc(C)n(C)c3=O)cc2)C(=O)O)CCCC1"
  pIC50: 6.85
- STRUCTURE: "Cc1cc(C(F)(F)F)n(C)c(=O)c1-c1ccc(C[C@H](NC(=O)c2c(Cl)cccc2Cl)C(=O)O)cc1"
  pIC50: 6.57
- STRUCTURE: "Cc1cc(C(F)(F)F)c(-c2ccc(C[C@H](NC(=O)c3c(Cl)cccc3Cl)C(=O)O)cc2)c(=O)n1Cc1ccccc1"
  pIC50: 6.25
- STRUCTURE: "Cc1cccc(Cl)c1C(=O)N[C@@H](Cc1ccc(-c2c(C)cc(C(F)(F)F)n(C)c2=O)cc1)C(=O)O"
  pIC50: 6.57
- STRUCTURE: "Cc1cc(C(F)(F)F)c(-c2ccc(C[C@H](NC(=O)c3c(Cl)cccc3Cl)C(=O)O)cc2)c(=O)n1C"
  pIC50: 7.49
- STRUCTURE: "CCn1c(C)cc(C(F)(F)F)c(-c2ccc(C[C@H](NC(=O)c3c(Cl)cccc3Cl)C(=O)O)cc2)c1=O"
  pIC50: 6.95
- STRUCTURE: "Cc1cccc(Cl)c1C(=O)N[C@@H](Cc1ccc(-c2c(C)ccn(C)c2=O)cc1)C(=O)O"
  pIC50: 6.65

---

experiment: Apparent permeability across human Caco2 cells; assay type: ADME, cell-based; conditions: Caco-2
Answer f if Papp is under 30 ×10⁻⁶ cm/s, and t if it is 30 ×10⁻⁶ cm/s or more.

- STRUCTURE: "CCOC(=O)[C@H](Cc1ccc(-c2c(C(F)(F)F)cc(C)n(C)c2=O)cc1)NC(=O)c1c(Cl)cccc1Cl"
  LABEL: "f"
- STRUCTURE: "CCN(CC)CCOC(=O)[C@H](Cc1ccc(-c2c(C(F)(F)F)cc(C)n(C)c2=O)cc1)NC(=O)c1c(Cl)cccc1Cl"
  LABEL: "f"
- STRUCTURE: "CCCOC(=O)[C@H](Cc1ccc(-c2c(C(F)(F)F)cc(C)n(C)c2=O)cc1)NC(=O)c1c(Cl)cccc1Cl"
  LABEL: "t"
- STRUCTURE: "Cc1cc(C(F)(F)F)c(-c2ccc(C[C@H](NC(=O)c3c(Cl)cccc3Cl)C(=O)OCC(C)C)cc2)c(=O)n1C"
  LABEL: "t"
- STRUCTURE: "COCCOC(=O)[C@H](Cc1ccc(-c2c(C(F)(F)F)cc(C)n(C)c2=O)cc1)NC(=O)c1c(Cl)cccc1Cl"
  LABEL: "t"
- STRUCTURE: "Cc1cc(C(F)(F)F)c(-c2ccc(C[C@H](NC(=O)c3c(Cl)cccc3Cl)C(=O)O)cc2)c(=O)n1C"
  LABEL: "f"
- STRUCTURE: "Cc1cc(C(F)(F)F)c(-c2ccc(C[C@H](NC(=O)c3c(Cl)cccc3Cl)C(=O)OCCCN3CCOCC3)cc2)c(=O)n1C"
  LABEL: "f"

---

experiment: Oral bioavailability in rat; type: ADME, organism-based; details: in vivo

- COMPOUND: "COCCCOC(=O)[C@H](Cc1ccc(-c2c(C(F)(F)F)cc(C)n(C)c2=O)cc1)NC(=O)c1c(Cl)cccc1Cl"
  QUANTITY UNIT: "%"
  bioavailability: 2
- COMPOUND: "Cc1cc(C(F)(F)F)c(-c2ccc(C[C@H](NC(=O)c3c(Cl)cccc3Cl)C(=O)OCCN3CCOCC3)cc2)c(=O)n1C"
  QUANTITY UNIT: "%"
  bioavailability: 15
- COMPOUND: "Cc1cc(C(F)(F)F)c(-c2ccc(C[C@H](NC(=O)c3c(Cl)cccc3Cl)C(=O)OCC(O)CO)cc2)c(=O)n1C (some centres not stated)"
  QUANTITY UNIT: "%"
  bioavailability: 6
- COMPOUND: "CCOC(=O)[C@H](Cc1ccc(-c2c(C(F)(F)F)cc(C)n(C)c2=O)cc1)NC(=O)c1c(Cl)cccc1Cl"
  QUANTITY UNIT: "%"
  bioavailability: 18
- COMPOUND: "CC(=O)OC(C)OC(=O)[C@H](Cc1ccc(-c2c(C(F)(F)F)cc(C)n(C)c2=O)cc1)NC(=O)c1c(Cl)cccc1Cl (some centres not stated)"
  QUANTITY UNIT: "%"
  bioavailability: 17
- COMPOUND: "CCN(CC)CCOC(=O)[C@H](Cc1ccc(-c2c(C(F)(F)F)cc(C)n(C)c2=O)cc1)NC(=O)c1c(Cl)cccc1Cl"
  QUANTITY UNIT: "%"
  bioavailability: 12
- COMPOUND: "Cc1cc(C(F)(F)F)c(-c2ccc(C[C@H](NC(=O)c3c(Cl)cccc3Cl)C(=O)OCCCN3CCOCC3)cc2)c(=O)n1C"
  QUANTITY UNIT: "%"
  bioavailability: 11

---

experiment: Oral bioavailability in rat at 50 mg/kg; assay type: ADME, organism-based; conditions: in vivo
READOUT KIND: bioavailability

- STRUCTURE: "Cc1cc(C(F)(F)F)c(-c2ccc(C[C@H](NC(=O)c3c(Cl)cccc3Cl)C(=O)OCCCN3CCOCC3)cc2)c(=O)n1C"
  READOUT KIND: "bioavailability"
  OBSERVED: "11%"
